# credit: patent US10676468B2

- Tested on: Hedgehog Signaling Pathway
- Protocol notes: Gli-Luc reporter gene cell assay in C3H10T1/2/Gli-Luc cells stimulated with Shh
- Type: cell-based, mouse
- Run parameters: Mus musculus, C3H 10T1/2, 24 h, 30 nM Shh, luciferase activity (RLU), read-out: IC50 values of compounds that inhibit Hh pathway
Outcome measure: pIC50
A value of pIC50 is the negative decimal logarithm of a concentration given in moles per litre.

QUERY: Identify the reported pIC50 for the following entry. Cc1cc(N2C[C@@H](C)N(C)[C@@H](C)C2)ccc1C(=O)Nc1ccc(Cl)c(-c2nc3ccccc3[nH]2)c1
RESULT: 9.30

QUERY: Identify the reported pIC50 for the following entry. Cc1cc(N2C[C@@H](C)N(C(C)C)[C@@H](C)C2)ccc1C(=O)Nc1ccc(Cl)c(-c2nc3ccccc3[nH]2)c1
RESULT: 9.17

QUERY: Identify the reported pIC50 for the following entry. C[C@@H]1CN(c2ccc(C(=O)Nc3ccc(Cl)c(-c4ncc(C5CCCC5)[nH]4)c3)c(Cl)c2)C[C@H](C)N1C
RESULT: 8.35

QUERY: Identify the reported pIC50 for the following entry. CC(C)N1[C@H](C)CN(c2ccc(C(=O)Nc3ccc(Cl)c(-c4nc5ccccc5[nH]4)c3)c(Cl)c2)C[C@@H]1C
RESULT: 9.24

QUERY: Identify the reported pIC50 for the following entry. C[C@@H]1CN(c2ccc(C(=O)Nc3ccc(Cl)c(-c4nc5ccccc5[nH]4)c3)cc2)C[C@H](C)N1C
RESULT: 8.29

QUERY: Identify the reported pIC50 for the following entry. C[C@@H]1CN(c2ccc(C(=O)Nc3cnc(Cl)c(-c4nc5ccccc5[nH]4)c3)cn2)C[C@H](C)N1C
RESULT: 9.03

QUERY: Identify the reported pIC50 for the following entry. C[C@@H]1CN(c2ccc(C(=O)Nc3cnc(Cl)c(-c4nc5ccc(F)cc5[nH]4)c3)c(Cl)c2)C[C@H](C)N1C
RESULT: 8.40

====

- Tested on: Hedgehog Signaling Pathway
- Protocol notes: Gli-Luc reporter gene cell assay in C3H10T1/2/Gli-Luc cells stimulated with Shh
- Format: cell-based, mouse
- Run parameters: Mus musculus, C3H 10T1/2, 24 h, 30 nM Shh, luciferase activity (RLU), read-out: IC50 values of compounds that inhibit Hh pathway
Where a name gives a salt, the structure may show the parent alone.
Labels assigned by IC50 range: range A (below 2 nM), range B (2 nM to below 5 nM), range C (5 nM or more)

QUERY: Looking at Cc1ccc(-c2cnc(-c3cc(NC(=O)c4ccc(N5C[C@@H](C)N(C)[C@@H](C)C5)cc4C)ccc3Cl)[nH]2)o1 [Example 152] , which class would you pick?
RESULT: range A

QUERY: Looking at C[C@@H]1CN(c2ccc(C(=O)Nc3ccc(Cl)c(-c4nc5ccccc5[nH]4)c3)c(F)c2)C[C@H](C)N1C [Example 95] , which class would you pick?
RESULT: range B

QUERY: Looking at Cc1ccc(NC(=O)c2ccc(N3C[C@@H](C)N(C)[C@@H](C)C3)cc2Cl)cc1-c1nc2ccc(F)cc2[nH]1 [Example 115] , which class would you pick?
RESULT: range B

QUERY: Looking at Cc1cc(-c2ccc(Cl)cc2)ccc1C(=O)Nc1ccc(Cl)c(-c2nc3ccccc3[nH]2)c1 [Example 8] , which class would you pick?
RESULT: range B

QUERY: Looking at C[C@@H]1CN(c2cc(Cl)c(C(=O)Nc3ccc(Cl)c(-c4ncc(-c5ccsc5)[nH]4)c3)cc2F)C[C@H](C)N1C [Example 142] , which class would you pick?
RESULT: range A

QUERY: Looking at Cc1ccc(-c2cnc(-c3cc(NC(=O)c4ccc(N5C[C@@H](C)O[C@@H](C)C5)cc4C)ccc3Cl)[nH]2)cc1 [Example 80] , which class would you pick?
RESULT: range A

QUERY: Looking at C[C@@H]1CN(c2ccc(C(=O)Nc3ccc(Cl)c(-c4nc5ccccc5n4C)c3)c(Cl)c2)C[C@H](C)N1C [Example 110] , which class would you pick?
RESULT: range A

QUERY: Looking at C[C@@H]1CN(c2ccc(C(=O)Nc3ccc(Cl)c(-c4cnc5ccccc5n4)c3)c(Cl)c2)C[C@H](C)N1C [Example 204] , which class would you pick?
RESULT: range C

QUERY: Looking at C[C@@H]1CN(c2ccc(C(=O)Nc3ccc(Cl)c(-c4nc5ccccc5[nH]4)c3)cc2Cl)C[C@H](C)N1C [Example 120] , which class would you pick?
RESULT: range A

QUERY: Looking at Cc1cc(-c2ccc(C(F)(F)F)cc2)ccc1C(=O)Nc1cnc(C)c(-c2nc3ccccc3[nH]2)c1 [Example 71] , which class would you pick?
RESULT: range C

QUERY: Looking at CCN1[C@H](C)CN(c2ccc(C(=O)Nc3ccc(Cl)c(-c4ncc(C5CC5)[nH]4)c3)c(Cl)c2)C[C@@H]1C [Example 194, Dihydrochloride] , which class would you pick?
RESULT: range A

QUERY: Looking at Cc1cc(-c2ccc(C(F)(F)F)cc2)ccc1C(=O)Nc1ccc(Cl)c(-c2ccccn2)c1 [Example 59] , which class would you pick?
RESULT: range C

QUERY: Looking at COc1ccc(-c2ccc(C(=O)Nc3ccc(Cl)c(-c4nc5ccccc5[nH]4)c3)c(C)c2)cn1 [Example 66] , which class would you pick?
RESULT: range C
